# target.entity: Thrombin & trypsin (Homo sapiens) (UniProt P00734+P07477+P07478+P35030)
# experiment: Selectivity ratio of thrombin to trypsin
# Format: protein assay
experimental.endpoint: Ratio

a. O=C(O)CN[C@H](CC1CCCCC1)C(=O)N1CCC[C@H]1C(=O)NCC1CCc2n[nH]cc2C1 (some centres not stated)
b. O=C(NC1CCc2c[nH]cc2C1)[C@@H]1CCCN1C(=O)[C@@H](CC1CCCCC1)NS(=O)(=O)Cc1ccccc1 (some centres not stated)
c. Nc1ncc2c(n1)CCC(CNC(=O)[C@@H]1CCCN1C(=O)[C@H](N)C(c1ccccc1)c1ccccc1)C2 (some centres not stated)
Query :: Hi! Can you put these in order of Ratio, lowest number first? Give me the labels in the order the question wants.
Result :: b, c, a
